# System: HCV replicon 3a WT
# assay name: Cell-based HCV replicon assay, 3a WT
# conditions: Hepatitis C virus, 72 h; replicon cells, harvested day 3, replicon RNA by real time PCR (Taqman)
# Procedure: To measure cell-based anti-HCV activity of selected compounds of the present invention, replicon cells were seeded at 5000 cells/well in 96-well collagen I-coated Nunc plates in the presence of the test compound. […] The replicon RNA level was measured using real time PCR (Taqman assay). […] Alternatively, to quantitate the absolute amount of replicon RNA, a standard curve was established by including serially diluted T7 transcripts of replicon RNA in the Taqman assay. […]
I'd appreciate it if you could supply pEC50 values for the items below.
Answers are plain numbers, as −log10 of the molar value.

As a guide, the following entries are already answered.
- compound: "COC(=O)N[C@H](C(=O)N1CCC[C@H]1c1ncc(-c2ccc3c(c2)Oc2ccc(-c4cnc([C@@H]5CCCN5C(=O)[C@@H](NC(=O)OC)C(C)C)[nH]4)c4ccn-3c24)[nH]1)C(C)C [Compound 1]"
  measured metric: "pEC50"
  experimental value: 9.49
- compound: "COC(=O)N[C@H](C(=O)N1CCC[C@H]1c1ncc(-c2cc3c4c(c2)Oc2ccc(-c5cnc([C@@H]6CCCN6C(=O)[C@@H](NC(=O)OC)C(C)C)[nH]5)cc2N4CC3)[nH]1)C(C)C [Compound 6]"
  measured metric: "pEC50"
  experimental value: 9.66
- compound: "COC(=O)N[C@H](C(=O)N1CCC[C@H]1c1ncc(-c2ccc3c(c2)Oc2ccc(-c4cnc([C@@H]5CCCN5C(=O)[C@@H](NC(=O)OC)C(C)C)[nH]4)c4c2N3CC4)[nH]1)C(C)C [Compound 17]"
  measured metric: "pEC50"
  experimental value: 10.17

Please go through the list and note pEC50 for each compound.
1. COC(=O)N[C@H](C(=O)N1CCC[C@H]1c1ncc(-c2ccc3c(c2)Oc2ccc(-c4cnc([C@@H]5CCCN5C(=O)[C@@H](NC(=O)OC)C(C)C)[nH]4)c4cnn-3c24)[nH]1)C(C)C [Compound 10]
2. COC(=O)N[C@@H](C(=O)N1CCC[C@H]1c1ncc(-c2ccc3c(c2)Oc2ccc(-c4cnc([C@@H]5CCCN5C(=O)[C@H](NC(=O)OC)c5ccccc5)[nH]4)c4ccn-3c24)[nH]1)c1ccccc1 [Compound 3]

Result ::
1: 9.16; 2: 10.72

---

I'd appreciate it if you could supply EC50 values for the items below.
# System: HCV replicon 1b WT
# assay name: Cell-based HCV replicon assay, 1b WT
# conditions: Hepatitis C virus, 72 h; replicon cells, harvested day 3, replicon RNA by real time PCR (Taqman)
Numbers only, in pM.

- given smiles: "COC(=O)N[C@H](C(=O)N1CCC[C@H]1c1ncc(-c2cc3c4c(c2)Oc2ccc(-c5cnc([C@@H]6CCCN6C(=O)[C@@H](NC(=O)OC)C(C)C)[nH]5)cc2N4CCO3)[nH]1)C(C)C"
  measured metric: "EC50"
  readout units: "pM"
  experimental value: 5

# context switch: different compound, same EC50
Query :: Look up and report measured EC50 for this entry: `COC(=O)N[C@H](C(=O)N1C[C@H](F)C[C@H]1c1ncc(-c2ccc3c(c2)Oc2ccc(-c4cnc([C@@H]5C[C@@H](F)CN5C(=O)[C@@H](NC(=O)OC)C(C)C)[nH]4)c4ccn-3c24)[nH]1)C(C)C`
Result :: 5
